- TARGET OR TEST SYSTEM: HLA-B*27:03
- MEASUREMENT DESCRIPTION: IEDB peptide-MHC binding, purified MHC/competitive/fluorescence; filed as Kd, often an IC50 or EC50 that approximates it; bounds were set here for any values at or beyond the usual limits of such assays
- EXPERIMENTAL SETUP: source organism: Vibrio vulnificus YJ016
pKd: −log10 of the molar value.

# MACROMOLECULE SEQUENCE, pKd
measured = [
    ("LTDEQKNAV", "≤ 4.70"),
]

* * *

Kd: recorded values
- TARGET OR TEST SYSTEM: HLA-B*15:01
- MEASUREMENT DESCRIPTION: IEDB peptide-MHC binding, purified MHC/direct/fluorescence; filed as Kd, often an IC50 or EC50 that approximates it; bounds were set here for any values at or beyond the usual limits of such assays
- EXPERIMENTAL SETUP: source organism: Salmonella enterica subsp. enterica serovar Typhimurium
MEASURED QUANTITY: Kd (nM)

# MACROMOLECULE SEQUENCE, MEASURED QUANTITY, RECORDED RESULT
records = [
    ("VVPLYDTPL", "Kd", 1000),
    ("GMKAFTAAV", "Kd", 59),
    ("GMFGGCFAA", "Kd", 161),
]

* * *

- TARGET OR TEST SYSTEM: HLA-B*27:05
- MEASUREMENT DESCRIPTION: IEDB peptide-MHC binding, purified MHC/direct/fluorescence; filed as Kd, often an IC50 or EC50 that approximates it; bounds were set here for any values at or beyond the usual limits of such assays
- EXPERIMENTAL SETUP: source organism: Pasteurella multocida

# MACROMOLECULE SEQUENCE, TARGET OR TEST SYSTEM, Kd
measured = [
    ("LMAEDLANV", "HLA-B*27:05", "≥ 20 µM"),
]

* * *

- TARGET OR TEST SYSTEM: HLA-A*02:11
- MEASUREMENT DESCRIPTION: IEDB peptide-MHC binding, purified MHC/direct/fluorescence; filed as Kd, often an IC50 or EC50 that approximates it; bounds were set here for any values at or beyond the usual limits of such assays
- EXPERIMENTAL SETUP: source organism: Bacillus cereus H3081.97
pKd: −log10 of the molar value.

# MACROMOLECULE SEQUENCE, pKd
measured = [
    ("RLYNFSFLN", "≥ 9.00"),
]

* * *

- TARGET OR TEST SYSTEM: HLA-A*30:01
- MEASUREMENT DESCRIPTION: IEDB peptide-MHC binding, purified MHC/competitive/fluorescence; filed as Kd, often an IC50 or EC50 that approximates it; bounds were set here for any values at or beyond the usual limits of such assays
- EXPERIMENTAL SETUP: source organism: Influenza A virus H3N2

# MACROMOLECULE SEQUENCE, Kd / µM
data = [
    ("MKWMMAMKY", 1.08),
]

* * *

Kd: recorded values
- TARGET OR TEST SYSTEM: HLA-A*02:03
- MEASUREMENT DESCRIPTION: IEDB peptide-MHC binding, purified MHC/competitive/fluorescence; filed as Kd, often an IC50 or EC50 that approximates it; bounds were set here for any values at or beyond the usual limits of such assays
- EXPERIMENTAL SETUP: source organism: Human immunodeficiency virus 1

# MACROMOLECULE SEQUENCE, TARGET OR TEST SYSTEM, Kd (nM)
measured = [
    ("EELKSLFNTI", "HLA-A*02:03", 1540),
    ("RSLYNTIATLY", "HLA-A*02:03", 722),
]
